# target_under_test: PVNZ112.3-CBP (Parapoxvirus of red deer in New Zealand (PVNZ), strain RD86)
# test_name: SPR; CBP-FLAG immobilised by amine coupling on a CM5 chip (300-400 RU, 10 mM sodium acetate pH 4.5); serial dilutions of mouse chemokine flowed in triplicate for 3 min, 10 min dissociation; 25°C; HBS-EP buffer (20 mM HEPES, 150 mM NaCl, 3.4 mM EDTA, 0.005% Polysorbate 20, pH 7.4); Biacore X100; global fit with a 1:1 binding model
pKd: −log10 of the molar value.
Yes means recorded pKd is 9 or above; No means it is below 9.

INSERT INTO results (binder, classification) VALUES
  ('recombinant mouse CCL19 (ligand) GANDAEDCCLSVTQRPIPGNIVKAFRYLLNEDGCRVPAVVFTTLRGYQLCAPPDQPWVDRIIRRLKKSSAKNKGNSTRRSPVS', 'No'),
  ('recombinant mouse CXCL2 (ligand) AVVASELRCQCLKTLPRVDFKNIQSLSVTPPGPHCAQTEVIATLKGGQKVCLDPEAPLVQKIIQKILNKGKAN', 'Yes'),
  ('recombinant mouse CXCL10 (ligand) IPLARTVRCNCIHIDDGPVRMRAIGKLEIIPASLSCPRVEIIATMKKNDEQRCLNPESKTIKNLMKAFSQKRSKRAP', 'No');
